These entries and their values trace back to ChEMBL document CHEMBL1138903.

Target: UniProtKB Q9Y5Y6
Experiment: Reduction of matriptase-catalyzed pro-HGF to HGF processing
MEASURED PARAMETER: IC50 (µM)
Supply the numeric figure in µM, leaving out any unit text.

IC50 for `N=C(N)c1cccc(C[C@H](NS(=O)(=O)c2ccc(C3CCCCC3)cc2)C(=O)N2CCN(C(=N)N)CC2)c1` ?
3

====

Biological target: Coagulation factor X (Homo sapiens, UniProt P00742)
pKi: −log10 of the molar value.
pKi of 5 or higher: T. Under 5: F.

>>> label_value("N=C(N)c1cccc(C[C@H](NS(=O)(=O)c2ccc3ccccc3c2)C(=O)N2CCC(C3CCN(C(=N)N)CC3)CC2)c1")
"F"

Let's switch to this molecule now.
Assess whether reported pKi for `N=C(N)c1cccc(C[C@H](NS(=O)(=O)c2ccc3c(c2)C(=O)c2ccccc2C3=O)C(=O)N2CCC(C(=O)NCCN)CC2)c1` sits at 5 or higher.
T

====

Target: Plasminogen (Homo sapiens, UniProt P00747)
Mark Yes for Ki under 2 µM, No if at or over.

These recorded examples may help you get a feel for the data.
>>> label_value("N=C(N)NCCC(=O)N1CCN(C(=O)[C@H](Cc2cccc(C(=N)N)c2)NS(=O)(=O)c2ccc3cc4ccccc4cc3c2)CC1")
"No"
>>> label_value("CC(C)c1cc(C(C)C)c(S(=O)(=O)NC(Cc2cccc(C(=N)N)c2)C(=O)N2CCN(C(=O)CN=C(N)N)CC2)c(C(C)C)c1 (racemic)")
"Yes"
>>> label_value("N=C(N)NCCNC(=O)C1CCN(C(=O)[C@H](Cc2cccc(C(=N)N)c2)NS(=O)(=O)c2ccc3c(c2)C(=O)c2ccccc2C3=O)CC1")
"No"

Identify whether the molecule `N=C(N)NCCC(=O)N1CCN(C(=O)[C@H](Cc2cccc(C(=N)N)c2)NS(=O)(=O)c2cccc3ccccc23)CC1` records Ki below 2 µM.
No

In plain terms, does `N=C(N)c1cccc(C[C@H](NS(=O)(=O)c2cccc(NC(=O)CCCN)c2)C(=O)N2CCC(CCN)CC2)c1` come in under 2 µM for Ki?
No

Please indicate whether the reported Ki of `CC(C)c1cc(C(C)C)c(S(=O)(=O)N[C@@H](Cc2cccc(C(=N)N)c2)C(=O)N2CCN(C(=O)CCN)CC2)c(C(C)C)c1` is strictly below 2 µM.
Yes

Regarding `CC(C)c1cc(C(C)C)c(S(=O)(=O)N[C@@H](Cc2cccc(C(=N)N)c2)C(=O)N2CCN(C(=N)N)CC2)c(C(C)C)c1` , kindly confirm whether its Ki is beneath 2 µM.
Yes

====

// values below are Ki; system is Prothrombin (Homo sapiens, UniProt P00734)

Use the examples below as a reference point.
>>> data_value("N=C(N)NCCC1CCN(C(=O)[C@H](Cc2cccc(C(=N)N)c2)NS(=O)(=O)c2ccc(C3CCCCC3)cc2)CC1")
"51 nM"
>>> data_value("CC(C)c1cc(C(C)C)c(S(=O)(=O)N[C@@H](Cc2cccc(C(=N)N)c2)C(=O)N2CCC(C(=O)NCCN)CC2)c(C(C)C)c1")
"16000 nM"
>>> data_value("N=C(N)c1cccc(C[C@H](NS(=O)(=O)c2ccc(-c3ccccc3)cc2)C(=O)N2CCN(C(=O)C3CCN(C(=N)N)CC3)CC2)c1")
"1300 nM"
>>> data_value("N=C(N)NCCC(=O)N1CCN(C(=O)[C@H](Cc2cccc(C(=N)N)c2)NS(=O)(=O)c2ccc3c(c2)C(=O)c2ccccc2C3=O)CC1")
"1800 nM"
>>> data_value("CC(C)c1cc(C(C)C)c(S(=O)(=O)NC(Cc2cccc(C(=N)N)c2)C(=O)N2CCN(C(=O)CN)CC2)c(C(C)C)c1 (racemic)")
"200 nM"
>>> data_value("CC(C)c1cc(C(C)C)c(S(=O)(=O)N[C@@H](Cc2cccc(C(=N)N)c2)C(=O)N2CCCN(C(=O)C3CCNCC3)CC2)c(C(C)C)c1")
"5000 nM"

Under Prothrombin (Homo sapiens, UniProt P00734): Ki value of `N=C(N)NCCC1CCN(C(=O)[C@H](Cc2cccc(C(=N)N)c2)NS(=O)(=O)c2ccc(Oc3ccccc3)nc2)CC1` ?
99 nM

====

Assay system Suppressor of tumorigenicity 14 protein (Homo sapiens, UniProt Q9Y5Y6); read-out recorded as pKi.
A value of pKi is the negative decimal logarithm of a concentration given in moles per litre.

>>> data_value("CC(C)c1cc(C(C)C)c(S(=O)(=O)N[C@@H](Cc2cccc(C(=N)N)c2)C(=O)N2CCNCC2)c(C(C)C)c1")
7.00
>>> data_value("N=C(N)NCCC1CCN(C(=O)[C@H](Cc2cccc(C(=N)N)c2)NS(=O)(=O)c2ccc(Oc3ccccc3)cc2)CC1")
7.42

Provide the documented pKi with Suppressor of tumorigenicity 14 protein (Homo sapiens, UniProt Q9Y5Y6) as the system for `N=C(N)NCCC(=O)N1CCN(C(=O)[C@H](Cc2cccc(C(=N)N)c2)NS(=O)(=O)Cc2ccc3ccccc3c2)CC1`
6.40

Notebook: pull reported pKi for Suppressor of tumorigenicity 14 protein (Homo sapiens, UniProt Q9Y5Y6), entry CC(C)c1cc(C(C)C)c(S(=O)(=O)NC(Cc2cccc(C(=N)N)c2)C(=O)N2CCN(C(=O)CCN=C(N)N)CC2)c(C(C)C)c1 (stereo not given)
7.09

Enter reported pKi observed with Suppressor of tumorigenicity 14 protein (Homo sapiens, UniProt Q9Y5Y6) for `N=C(N)NCCCC1CCN(C(=O)[C@H](Cc2cccc(C(=N)N)c2)NS(=O)(=O)c2ccc3ccccc3c2)CC1`
7.38

// fetch Suppressor of tumorigenicity 14 protein (Homo sapiens, UniProt Q9Y5Y6) pKi for Cc1ccc(S(=O)(=O)NC(Cc2cccc(C(=N)N)c2)C(=O)N2CCCCC2)cc1 (stereo not given)
4.85

Value wanted: pKi (Suppressor of tumorigenicity 14 protein (Homo sapiens, UniProt Q9Y5Y6)) of entry `N=C(N)c1cccc(C[C@H](NS(=O)(=O)c2cccc(NC(=O)CCN)c2)C(=O)N2CCC(CCN)CC2)c1`
8.18

Recorded pKi for `N=C(N)c1cccc(C[C@H](NS(=O)(=O)c2ccc(C3CCCCC3)cc2)C(=O)N2CCN(C(=N)N)CC2)c1` with Suppressor of tumorigenicity 14 protein (Homo sapiens, UniProt Q9Y5Y6), please?
7.59

====

Let's go through some recorded pKi values for Prothrombin (Homo sapiens, UniProt P00734) together.
Remember, pKi is on a log scale: it is -log10 of the molar concentration.

Example molecules with recorded pKi:
>>> data_value("N=C(N)c1cccc(C[C@H](NS(=O)(=O)c2cccc(NC(=O)CCN)c2)C(=O)N2CCC(CCN)CC2)c1")
4.57
>>> data_value("CC(C)c1cc(C(C)C)c(S(=O)(=O)N[C@@H](Cc2cccc(C(=N)N)c2)C(=O)N2CCCN(C(=O)CCN)CC2)c(C(C)C)c1")
6.31
>>> data_value("N=C(N)c1cccc(C[C@H](NS(=O)(=O)c2ccc3ccccc3c2)C(=O)N2CCC(C3CCNCC3)CC2)c1")
4.92
>>> data_value("CC(C)c1cc(C(C)C)c(S(=O)(=O)N[C@@H](Cc2cccc(C(=N)N)c2)C(=O)N2CCN(C(=O)C3CCNCC3)CC2)c(C(C)C)c1")
5.27
>>> data_value("N=C(N)c1cccc(C[C@H](NS(=O)(=O)c2ccc3ccccc3c2)C(=O)N2CCC(CCCN)CC2)c1")
6.22
>>> data_value("N=C(N)c1cccc(C[C@H](NS(=O)(=O)c2cccc(NC(=O)CN)c2)C(=O)N2CCC(CCN)CC2)c1")
5.15

# evaluate next
What pKi appears in the records for this molecule with Prothrombin (Homo sapiens, UniProt P00734)? `N=C(N)c1cccc(C[C@H](NS(=O)(=O)c2ccc(NC(=O)CCN)cc2)C(=O)N2CCC(CCN)CC2)c1`
5.06

====

Molecular target: Coagulation factor VII/tissue factor (Homo sapiens) (UniProt P08709+P13726)
Conditions: Blood
Description: Anticoagulant activity in blood by PT assay
MEASURED PARAMETER: IC200 (µM)
Use µM as the unit, but write only the number.

>>> data_value("N=C(N)NCCC1CCN(C(=O)[C@H](Cc2cccc(C(=N)N)c2)NS(=O)(=O)c2ccc3ccccc3c2)CC1")
3.8

// below: IC200 requested for another molecule
Dear colleague, I am looking for the recorded IC200 of the following molecule: `N=C(N)NCCC1CCN(C(=O)[C@H](Cc2cccc(C(=N)N)c2)NS(=O)(=O)c2ccc(Oc3ccccc3)nc2)CC1`
1.6

====

Target: Plasminogen (Homo sapiens, UniProt P00747)
pKi: −log10 of the molar value.
Cut-off 6 on pKi, inclusive. At or above means criterion met; below means criterion not met.

Can `N=C(N)c1cccc(C[C@H](NS(=O)(=O)c2ccc3ccccc3c2)C(=O)N2CCC(C3CCNCC3)CC2)c1` be said to have pKi at or above 6?
criterion met

Reported pKi reaches at least 6 for `CC(C)c1cc(C(C)C)c(S(=O)(=O)N[C@@H](Cc2cccc(C(=N)N)c2)C(=O)N2CCCN(C(=O)CCN)CC2)c(C(C)C)c1` ?
criterion met

Is pKi for `N=C(N)c1cccc(C[C@H](NS(=O)(=O)c2ccc(C3CCCCC3)cc2)C(=O)N2CCNCC2)c1` at or above 6?
criterion not met
